meta.source: ChEMBL document CHEMBL1129537

Sequence of the target: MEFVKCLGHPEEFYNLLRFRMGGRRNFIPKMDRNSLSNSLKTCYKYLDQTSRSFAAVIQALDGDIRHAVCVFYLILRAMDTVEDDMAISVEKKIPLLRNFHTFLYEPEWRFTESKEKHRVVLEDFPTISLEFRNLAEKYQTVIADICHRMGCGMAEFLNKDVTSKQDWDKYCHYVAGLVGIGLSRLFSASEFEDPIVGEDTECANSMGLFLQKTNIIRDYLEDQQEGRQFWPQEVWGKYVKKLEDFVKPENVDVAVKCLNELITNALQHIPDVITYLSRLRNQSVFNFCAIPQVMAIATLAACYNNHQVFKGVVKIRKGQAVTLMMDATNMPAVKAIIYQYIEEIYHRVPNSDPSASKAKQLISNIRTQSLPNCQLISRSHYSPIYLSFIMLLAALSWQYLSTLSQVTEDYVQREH
property: pIC50
Friendly reminder that pIC50 comes from taking -log10 of the concentration in mol/L.

- smiles-notation: "C=C(CC[C@]12O[C@H](CN(C)C)[C@@](O)(C(=O)O)[C@](C(=O)O)(O1)[C@H](OC(=O)/C=C/[C@@H](C)C[C@@H](C)CC)[C@H]2O)[C@@H](OC(C)=O)[C@H](C)Cc1ccccc1"
  property: "pIC50"
  measured-result: 8.00

API: the following record is the query input.
Entry `C=C(CC[C@]12O[C@H](COC)[C@@](O)(C(=O)O)[C@](C(=O)O)(O1)[C@H](OC(=O)/C=C/[C@@H](C)C[C@@H](C)CC)[C@H]2O)[C@@H](OC(C)=O)[C@H](C)Cc1ccccc1` : reported pIC50 = ?
7.89
